Hello, the source for this data is ChEMBL document CHEMBL1125081, in case you need it.

test system: Human alphaherpesvirus 2; experiment: Evaluated for minimum inhibitory concentration against G,196, Lyons strains of Herpes simplex virus (HSV-2) in primary rabbit kidney cells; format: functional

>  <compound>
Nc1ncnc2c1ncn2[C@@H]1C[C@H](CO)[C@@H](O)C1

>  <MIC>
20 µg/mL

$$$$
>  <compound>
O=c1[nH]c(=O)n([C@H]2C[C@H](O)[C@@H](CO)O2)cc1/C=C/Br [BRIVUDINE]

>  <MIC>
7 µg/mL

$$$$
>  <compound>
Cc1cn(C2CC3OCC2C3CO)c(=O)[nH]c1=O (stereo not given)

>  <MIC>
> 400 µg/mL

$$$$
>  <compound>
NC(=O)c1ncn([C@@H]2O[C@H](CO)[C@@H](O)[C@H]2O)n1 [RIBAVIRIN]

>  <MIC>
> 400 µg/mL

$$$$
>  <compound>
Cc1cn([C@H]2C[C@H](O)[C@@H](CO)[C@@H]2C)c(=O)[nH]c1=O

>  <MIC>
> 400 µg/mL

$$$$
>  <compound>
Cc1cn([C@@H]2C[C@H](CO)[C@@H](O)C2)c(=O)[nH]c1=O

>  <MIC>
2 µg/mL

$$$$
>  <compound>
Nc1nccc2c1ncn2[C@@H]1C[C@H](CO)[C@@H](O)[C@H]1O [3-DEAZAARISTEROMYCIN A]

>  <MIC>
> 400 µg/mL

$$$$
>  <compound>
Cc1cn([C@H]2C[C@@H](CO)[C@H](O)C2)c(=O)[nH]c1=O

>  <MIC>
> 400 µg/mL

$$$$
>  <compound>
Cc1cn([C@@H]2C[C@H](CO)[C@H](O)C2)c(=O)[nH]c1=O

>  <MIC>
> 400 µg/mL

$$$$
>  <compound>
Cc1cn([C@H]2CC[C@@H](CO)C2)c(=O)[nH]c1=O

>  <MIC>
> 400 µg/mL

$$$$

----------
// values below are reported MIC
system: Vesicular stomatitis virus; assay: Evaluated for minimum inhibitory concentration against Vesicular stomatitis virus (VSV) in primary rabbit kidney cells; assay type: functional

>  <compound>
Cc1cn(C2CC3OCC2C3CO)c(=O)[nH]c1=O (centres undefined)

>  <target>
Vesicular stomatitis virus

>  <MIC>
> 400 µg/mL

$$$$
>  <compound>
Cc1cn([C@H]2CC[C@@H](CO)C2)c(=O)[nH]c1=O

>  <target>
Vesicular stomatitis virus

>  <MIC>
> 400 µg/mL

$$$$
>  <compound>
NC(=O)c1ncn([C@@H]2O[C@H](CO)[C@@H](O)[C@H]2O)n1

>  <target>
Vesicular stomatitis virus

>  <MIC>
300 µg/mL

$$$$
>  <compound>
Cc1cn([C@H]2C[C@@H](CO)[C@H](O)C2)c(=O)[nH]c1=O

>  <target>
Vesicular stomatitis virus

>  <MIC>
> 400 µg/mL

$$$$
>  <compound>
O=c1[nH]c(=O)n([C@H]2C[C@H](O)[C@@H](CO)O2)cc1/C=C/Br

>  <target>
Vesicular stomatitis virus

>  <MIC>
> 400 µg/mL

$$$$
>  <compound>
Cc1cn([C@@H]2C[C@H](CO)[C@H](O)C2)c(=O)[nH]c1=O

>  <target>
Vesicular stomatitis virus

>  <MIC>
> 400 µg/mL

$$$$
>  <compound>
Nc1ncnc2c1ncn2[C@@H]1C[C@H](CO)[C@@H](O)C1

>  <target>
Vesicular stomatitis virus

>  <MIC>
> 400 µg/mL

$$$$
>  <compound>
Cc1cn([C@@H]2C[C@H](CO)[C@@H](O)C2)c(=O)[nH]c1=O

>  <target>
Vesicular stomatitis virus

>  <MIC>
> 200 µg/mL

$$$$
>  <compound>
Nc1nccc2c1ncn2[C@@H]1C[C@H](CO)[C@@H](O)[C@H]1O

>  <target>
Vesicular stomatitis virus

>  <MIC>
0.7 µg/mL

$$$$
